System: Lolium rigidum (LOLRI)
Test: Post-emergence herbicidal action against LOLRI
Format: in vivo
Conditions: dosage 80 g/ha
measuredEndpoint: Post-emergence action against LOLRI in %
# do not omit the unit; it follows the number

> print(dat)
                                 smilesdata  assayvalue
1  COCCOCCOC(=O)[C@@H](C)Oc1nn(-c2ncccc2F)c(-c2ccc(F)nc2)c1Br         80%

Req: Consider the compound shown here: `COC(=O)COc1nn(-c2nc(F)ccc2F)c(-c2ccc(F)nc2)c1Br` What is its recorded Post-emergence action against LOLRI in %?
Resp: 80%

Req: // Post-emergence action against LOLRI in % lookup, key: `COC(=O)[C@@H](C)Oc1nn(-c2ncccc2Cl)c(-c2ccc(F)nc2)c1Br`
Resp: 90%

Req: Query: Post-emergence action against LOLRI in %; subject: `CCOC(=O)COc1nn(-c2ccccn2)c(-c2ccc(F)nc2)c1Br`
Resp: 80%

These data points were gathered from patent US20240041042A1.
